test.system: human FAAH (Homo sapiens, UniProt O00519)
Construct: expressed in transfected cells; host or cells: H4 cells (H4-FAAH, Geneticin-selected); crude membrane homogenates
experiment.summary: FAAH activity in membrane homogenates of H4-FAAH cells, [3H]-anandamide hydrolysis
Type: biochemical
condition.details: H4-FAAH cell membranes, 10 μM anandamide, room temperature, one hour; read-out: IC50
readout.label: IC50

compound: CCCCCCCCC(=O)Nc1ccc(NC(=O)O/N=C/c2ccc(F)cc2)cc1 [Example 137]
result: 10 to 100 nM

Consider the record given below.
Qu. Reported IC50 for human FAAH (Homo sapiens, UniProt O00519), given CCCCOc1ccc(CNC(=O)Oc2cccc(Cl)c2)cc1 [Example 122] ?
Ans. 10 to 100 nM

---

test.system: human FAAH (Homo sapiens, UniProt O00519)
Construct: expressed in transfected cells; host or cells: H4 cells (H4-FAAH, Geneticin-selected); crude membrane homogenates
experiment.summary: FAAH activity in membrane homogenates of H4-FAAH cells, [3H]-anandamide hydrolysis
Type: biochemical
condition.details: H4-FAAH cell membranes, 10 μM anandamide, room temperature, one hour; read-out: IC50
readout.label: IC50

compound: CCCCCCOc1ccc(NC(=O)Oc2ccccc2)cc1 [Example 93]
test.system: human FAAH (Homo sapiens, UniProt O00519)
IC50: 10 to 100 nM

Consider the record given below.
Qu. Bench note: what IC50 did O=C(Nc1cccc(Oc2ccccc2)c1)O/N=C/c1ccccc1 [Example 91] show?
Ans. < 10 nM

---

test.system: human FAAH (Homo sapiens, UniProt O00519)
Construct: expressed in transfected cells; host or cells: H4 cells (H4-FAAH, Geneticin-selected); crude membrane homogenates
Sequence (O00519 1-579): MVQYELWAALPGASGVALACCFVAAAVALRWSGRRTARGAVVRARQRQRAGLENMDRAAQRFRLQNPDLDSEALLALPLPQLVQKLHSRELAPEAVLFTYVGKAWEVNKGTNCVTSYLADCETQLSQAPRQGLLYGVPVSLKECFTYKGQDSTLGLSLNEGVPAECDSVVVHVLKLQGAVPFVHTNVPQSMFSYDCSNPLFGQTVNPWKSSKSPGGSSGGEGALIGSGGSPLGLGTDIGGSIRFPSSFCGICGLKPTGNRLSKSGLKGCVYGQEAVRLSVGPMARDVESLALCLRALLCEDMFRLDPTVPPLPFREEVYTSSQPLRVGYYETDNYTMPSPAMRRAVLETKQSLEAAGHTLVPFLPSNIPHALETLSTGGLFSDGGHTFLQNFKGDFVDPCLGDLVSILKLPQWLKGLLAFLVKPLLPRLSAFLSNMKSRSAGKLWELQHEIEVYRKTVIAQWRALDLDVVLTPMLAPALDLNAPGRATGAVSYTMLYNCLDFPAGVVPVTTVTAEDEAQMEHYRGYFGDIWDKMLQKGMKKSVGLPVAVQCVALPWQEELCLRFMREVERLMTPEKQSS
experiment.summary: FAAH activity in membrane homogenates of H4-FAAH cells, [3H]-anandamide hydrolysis
Format: biochemical
condition.details: H4-FAAH cell membranes, 10 μM anandamide, room temperature, one hour; read-out: IC50
pIC50: −log10 of the molar value.
Entries annotated with measured pIC50

Qu. Bench note: what pIC50 did `CCCCCCCCCOc1ccc(NC(=O)O/N=C/c2cccc(C(F)(F)F)c2F)cc1` show?
Ans. > 8.00
